# experimental.system: T1, TNFR1 (Homo sapiens, UniProt P19438)
# T1 chain: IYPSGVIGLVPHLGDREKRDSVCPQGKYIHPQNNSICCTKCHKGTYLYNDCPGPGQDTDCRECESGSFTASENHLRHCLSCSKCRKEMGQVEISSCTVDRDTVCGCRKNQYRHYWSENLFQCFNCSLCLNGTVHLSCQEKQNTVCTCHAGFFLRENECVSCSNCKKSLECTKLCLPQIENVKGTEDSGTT
# method.summary: yeast display SC50
// reported apparent Kd (screen) for each item listed
Return type: number; implicit unit nM.

E86H (designed binder) MTLQELLREEALRRAEAEAFRYALELLAEKFPEQKEYLLDLAEEIESQIRSLSGVDVEDVRKFLDKEWAWVKELLAEHPAELAEVHAARAARLAELRAEVEAKVAA
0.79
E73Y (designed binder) MTLQELLREEALRRAEAEAFRYALELLAEKFPEQKEYLLDLAEEIESQIRSLSGVDVEDVRKFLDKEWAWVKYLLAEHPAELAEVEAARAARLAELRAEVEAKVAA
0.539
A91R (designed binder) MTLQELLREEALRRAEAEAFRYALELLAEKFPEQKEYLLDLAEEIESQIRSLSGVDVEDVRKFLDKEWAWVKELLAEHPAELAEVEAARARRLAELRAEVEAKVAA
0.446

Here's the next entry for you.
The recorded apparent Kd (screen) for entry L38Y (designed binder) MTLQELLREEALRRAEAEAFRYALELLAEKFPEQKEYYLDLAEEIESQIRSLSGVDVEDVRKFLDKEWAWVKELLAEHPAELAEVEAARAARLAELRAEVEAKVAA equals 0.79
